experiment: Pharmacokinetic evaluation in humans; assay type: in vivo; settings: human, plasma, 20 mg, compartmental, read-out: Estimated Cmax, Mean (SD)
quantityMeasured: Cmax (ng/mL)
Give the number; ng/mL is assumed, so skip it.

// Input: C[C@H](NC(=O)[C@H](CCC(=O)O)NC(=O)CCCC[C@@H]1CCSS1)C(=O)O [RLip-EA-OH, N-(R)-lipoyl-L-glutamyl-L- alanine] . Output its Cmax only.
2360

====

experiment: Pharmacokinetic evaluation in humans; type: in vivo; details: human, plasma, 300 mg, noncompartmental, read-out: CL, Mean (SD) (converted)
quantityMeasured: clearance (mL/min)
Give the number; mL/min is assumed, so skip it.

// Input: C[C@H](NC(=O)[C@H](CCC(=O)O)NC(=O)CCCC[C@@H]1CCSS1)C(=O)O [RLip-EA-OH, N-(R)-lipoyl-L-glutamyl-L- alanine] . Output its clearance only.
322
